Hey, just so you know, these numbers are from patent US10059667B2.

target or test system: Human GPR40 (Homo sapiens (Human))
Sequence (O14842 whole entry): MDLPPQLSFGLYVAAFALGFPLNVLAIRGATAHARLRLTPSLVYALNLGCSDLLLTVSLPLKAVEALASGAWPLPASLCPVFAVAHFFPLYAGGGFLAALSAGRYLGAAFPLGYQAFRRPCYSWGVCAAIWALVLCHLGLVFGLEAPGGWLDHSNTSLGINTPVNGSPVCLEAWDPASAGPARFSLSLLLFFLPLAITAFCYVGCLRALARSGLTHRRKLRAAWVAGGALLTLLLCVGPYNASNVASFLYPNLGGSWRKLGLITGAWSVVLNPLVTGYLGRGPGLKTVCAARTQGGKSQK
method description: FLIPR assay, agonist-induced calcium mobilization in GPR40/CHO NFAT BLA cells
Type: cell-based
pEC50: −log10 of the molar value.
property measured: pEC50

These recorded examples may help you get a feel for the data.
molecule | target or test system | pEC50
O=C(O)C[C@H](c1cccc(OCCC2CN(Cc3cc(C(F)(F)F)ccc3C(F)(F)F)C2)c1)C1CC1 | Human GPR40 (Homo sapiens (Human)) | 6.44
O=C(O)C[C@H](c1cccc(OCC2CCN(Cc3cc(C(F)(F)F)ccc3C(F)(F)F)C2)c1)C1CC1 (stereo partly shown) | Human GPR40 (Homo sapiens (Human)) | 7.38
O=C(O)C[C@H](c1cccc(OC2CC3(C2)CN(Cc2cc(C(F)(F)F)ccc2C(F)(F)F)C3)c1)C1CC1 | Human GPR40 (Homo sapiens (Human)) | 7.10
CC(c1cc(C(F)(F)F)ccc1C(F)(F)F)N1CC(COc2cccc([C@@H](CC(=O)O)C3CC3)c2)C1 (stereo partly shown) | Human GPR40 (Homo sapiens (Human)) | 9.22

A = O=C(O)C[C@H](c1cccc(OCC2(F)CN(Cc3cc(C(F)(F)F)ccc3C(F)(F)F)C2)c1)C1CC1
B = O=C(O)C[C@H](c1cccc(OCC2CN(Cc3ccccc3OC(F)(F)F)C2)c1)C1CC1
C = C[C@H](C(=O)O)[C@H](c1cccc(OCC2CN(c3ncccc3C(F)(F)F)C2)c1)C1CC1
Output the entries ranked by pEC50 from maximum down to minimum. Answer by listing the labels in the order asked for. C, A, B
(C: 7.89, A: 7.66, B: 7.26)

---

target or test system: Human GPR40 (Homo sapiens (Human))
method description: Inositol Phosphate Turnover (IP1) Assay 1, HEK cells stably expressing human GPR40, 3H-inositol SPA
Format: cell-based
test context: HEK cells stably expressing human GPR40, 96-well
property measured: EC50 (nM)

Worked cases, answers included:
compound | EC50 [nM]
Cc1ccc(F)c(OC2CC(COc3cccc([C@H](C4CC4)[C@H](C)C(=O)O)c3)C2)c1 (single isomer, unassigned) [Example 118] | 156
CC(c1cc(C(F)(F)F)ccc1Cl)N1CC(COc2cccc([C@@H](CC(=O)O)C3CC3)c2)C1 (stereo partly drawn) | 527
C[C@H](C(=O)O)[C@H](c1cccc(OC[C@H]2C[C@@H]2c2ccc(Cl)c(C(F)(F)F)c2)c1)C1CC1 | 355
COc1ccc(F)c([C@H]2C[C@@H]2COc2cccc([C@H](C3CC3)[C@H](C)C(=O)O)c2)c1F | 78
C[C@H](C(=O)O)[C@H](c1cccc(OCC2CC(Oc3ccccc3)C2)c1)C1CC1 (stereo partly drawn) | 208
CC1(COc2cccc([C@@H](CC(=O)O)C3CC3)c2)CN(Cc2cc(C(F)(F)F)ccc2C(F)(F)F)C1 | 2720
CC(c1cc(C(F)(F)F)ccc1C(F)(F)F)N1CCC(COc2cccc([C@H](C3CC3)[C@H](C)C(=O)O)c2)CC1 (stereo partly drawn) | 20
COc1ccc(F)c([C@H]2C[C@@H]2COc2cccc([C@H](C3CC3)[C@H](C)C(=O)O)c2)c1 | 56
CC(c1ccccc1Cl)N1CC(COc2cccc([C@@H](CC(=O)O)C3CC3)c2)C1 (stereo partly drawn) | 5640
C[C@H](C(=O)O)[C@H](c1cccc(OCC2CN(Cc3cc(C(F)(F)F)ccc3C(F)(F)F)CCO2)c1)C1CC1 (stereo partly drawn) | 613

1 = CC(c1ccccc1C(F)(F)F)N1CC(COc2cccc([C@@H](CC(=O)O)C3CC3)c2)C1 (stereo partly drawn)
2 = COc1ccc(C)cc1OC1CC(COc2cccc([C@H](C3CC3)[C@H](C)C(=O)O)c2)C1 (single isomer, unassigned) [Example 116]
Look at 1 and 2 . Which one has the lower recorded EC50 number? Lab log: write the label of the selected item as the result. 2
(2: 77 nM, 1: 904 nM)
